tested on: RARa homodimer (NR concentration 270 nM); assay: PBM binding z-score (relative to random genomic background probes); higher = stronger binding; sequences stand for … in GC…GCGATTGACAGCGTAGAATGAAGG
Entry flag: Fulfilled if PBM binding z-score reaches 0.3; Not fulfilled if it does not.

INPUT SEQUENCE: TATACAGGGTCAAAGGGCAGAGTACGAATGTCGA
QUALITATIVE LABEL: Fulfilled
--
INPUT SEQUENCE: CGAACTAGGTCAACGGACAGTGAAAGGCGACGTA
QUALITATIVE LABEL: Not fulfilled
--
INPUT SEQUENCE: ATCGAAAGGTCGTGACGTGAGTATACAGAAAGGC
QUALITATIVE LABEL: Fulfilled
--
INPUT SEQUENCE: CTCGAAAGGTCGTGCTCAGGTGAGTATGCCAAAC
QUALITATIVE LABEL: Not fulfilled
--
INPUT SEQUENCE: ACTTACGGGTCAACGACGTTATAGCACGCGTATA
QUALITATIVE LABEL: Fulfilled
--
INPUT SEQUENCE: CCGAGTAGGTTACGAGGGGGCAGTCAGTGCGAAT
QUALITATIVE LABEL: Fulfilled
--
INPUT SEQUENCE: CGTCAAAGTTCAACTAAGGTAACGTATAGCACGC
QUALITATIVE LABEL: Fulfilled
--
INPUT SEQUENCE: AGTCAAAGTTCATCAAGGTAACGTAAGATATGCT
QUALITATIVE LABEL: Fulfilled
--
INPUT SEQUENCE: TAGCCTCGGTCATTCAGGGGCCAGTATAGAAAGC
QUALITATIVE LABEL: Not fulfilled
--
INPUT SEQUENCE: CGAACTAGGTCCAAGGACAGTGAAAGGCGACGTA
QUALITATIVE LABEL: Not fulfilled
--
INPUT SEQUENCE: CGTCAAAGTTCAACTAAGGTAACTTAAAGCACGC
QUALITATIVE LABEL: Fulfilled
--
INPUT SEQUENCE: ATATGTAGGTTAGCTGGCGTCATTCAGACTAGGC
QUALITATIVE LABEL: Not fulfilled
--
INPUT SEQUENCE: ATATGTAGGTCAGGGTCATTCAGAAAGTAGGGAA
QUALITATIVE LABEL: Fulfilled
--
INPUT SEQUENCE: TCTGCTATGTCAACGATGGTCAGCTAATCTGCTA
QUALITATIVE LABEL: Not fulfilled
--
INPUT SEQUENCE: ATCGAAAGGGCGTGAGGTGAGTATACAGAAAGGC
QUALITATIVE LABEL: Not fulfilled
--
INPUT SEQUENCE: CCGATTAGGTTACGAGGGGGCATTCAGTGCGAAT
QUALITATIVE LABEL: Fulfilled
--
INPUT SEQUENCE: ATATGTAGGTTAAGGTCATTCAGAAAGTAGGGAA
QUALITATIVE LABEL: Fulfilled
--
INPUT SEQUENCE: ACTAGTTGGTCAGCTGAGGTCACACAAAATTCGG
QUALITATIVE LABEL: Fulfilled
--
INPUT SEQUENCE: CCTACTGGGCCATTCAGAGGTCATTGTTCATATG
QUALITATIVE LABEL: Not fulfilled
--
INPUT SEQUENCE: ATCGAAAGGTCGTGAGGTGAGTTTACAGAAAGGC
QUALITATIVE LABEL: Fulfilled
--
INPUT SEQUENCE: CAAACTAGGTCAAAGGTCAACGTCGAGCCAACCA
QUALITATIVE LABEL: Fulfilled
--
INPUT SEQUENCE: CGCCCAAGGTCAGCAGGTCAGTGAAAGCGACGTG
QUALITATIVE LABEL: Fulfilled
--
INPUT SEQUENCE: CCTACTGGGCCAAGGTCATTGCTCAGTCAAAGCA
QUALITATIVE LABEL: Not fulfilled
--
INPUT SEQUENCE: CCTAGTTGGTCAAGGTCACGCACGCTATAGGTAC
QUALITATIVE LABEL: Fulfilled
--
INPUT SEQUENCE: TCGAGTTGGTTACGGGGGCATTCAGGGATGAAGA
QUALITATIVE LABEL: Fulfilled
--
INPUT SEQUENCE: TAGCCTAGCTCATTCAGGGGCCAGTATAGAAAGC
QUALITATIVE LABEL: Not fulfilled
